# System: S. haemolyticus
# Experiment notes: Oxford cup assay, zone of inhibition
# Assay type: cell-based
# Condition set: Staphylococcus haemolyticus; 320 µg/mL
Listed below: zone of inhibition at 320 µg/mL values for each entry.
Observed property: zone of inhibition at 320 µg/mL

[[record]]
compound = "C=C[C@]1(C)C[C@@H](OC(=O)CSc2nc3ccc(NC(=O)c4cc5ccccc5[nH]4)cc3[nH]2)[C@]2(C)[C@H](C)CC[C@]3(CCC(=O)[C@H]32)[C@@H](C)[C@@H]1O [Compound 4l]"
observed_property = "zone of inhibition at 320 µg/mL"
result_value = "25.1 mm"

[[record]]
compound = "C=C[C@]1(C)C[C@@H](OC(=O)CSc2nc3ccc(NC(=O)c4ccc(C)cc4)cc3[nH]2)[C@]2(C)[C@H](C)CC[C@]3(CCC(=O)[C@H]32)[C@@H](C)[C@@H]1O [Compound 4f]"
observed_property = "zone of inhibition at 320 µg/mL"
result_value = "20.7 mm"

[[record]]
compound = "C=C[C@]1(C)C[C@@H](OC(=O)CSc2nc3ccc(NC(=O)c4ccccc4Cl)cc3[nH]2)[C@]2(C)[C@H](C)CC[C@]3(CCC(=O)[C@H]32)[C@@H](C)[C@@H]1O [Compound 4a]"
observed_property = "zone of inhibition at 320 µg/mL"
result_value = "24.9 mm"

[[record]]
compound = "C=C[C@]1(C)C[C@@H](OC(=O)CSc2nc3ccc(NC(=O)c4cccc(OC)c4)cc3[nH]2)[C@]2(C)[C@H](C)CC[C@]3(CCC(=O)[C@H]32)[C@@H](C)[C@@H]1O [Compound 4h]"
observed_property = "zone of inhibition at 320 µg/mL"
result_value = "28.4 mm"

[[record]]
compound = "C=C[C@]1(C)C[C@@H](OC(=O)CSc2nc3ccc(NC(=O)c4ccccc4OC)cc3[nH]2)[C@]2(C)[C@H](C)CC[C@]3(CCC(=O)[C@H]32)[C@@H](C)[C@@H]1O [Compound 4g]"
observed_property = "zone of inhibition at 320 µg/mL"
result_value = "25.6 mm"

[[record]]
compound = "C=C[C@]1(C)C[C@@H](OC(=O)CSc2nc3ccc(NC(=O)c4ccc(OC)cc4)cc3[nH]2)[C@]2(C)[C@H](C)CC[C@]3(CCC(=O)[C@H]32)[C@@H](C)[C@@H]1O [Compound 4i]"
observed_property = "zone of inhibition at 320 µg/mL"
result_value = "32.9 mm"

[[record]]
compound = "C=C[C@]1(C)C[C@@H](OC(=O)CSc2nc3ccc(NC(=O)c4ccccc4C)cc3[nH]2)[C@]2(C)[C@H](C)CC[C@]3(CCC(=O)[C@H]32)[C@@H](C)[C@@H]1O [Compound 4d]"
observed_property = "zone of inhibition at 320 µg/mL"
result_value = "18.4 mm"

[[record]]
compound = "C=C[C@]1(C)C[C@@H](OC(=O)CSc2nc3ccc(NC(=O)C4CCCCC4)cc3[nH]2)[C@]2(C)[C@H](C)CC[C@]3(CCC(=O)[C@H]32)[C@@H](C)[C@@H]1O [Compound 4j]"
observed_property = "zone of inhibition at 320 µg/mL"
result_value = "26.4 mm"

[[record]]
compound = "C=C[C@]1(C)C[C@@H](OC(=O)CSc2nc3ccc(NC(=O)c4cccc(C)c4)cc3[nH]2)[C@]2(C)[C@H](C)CC[C@]3(CCC(=O)[C@H]32)[C@@H](C)[C@@H]1O [Compound 4e]"
observed_property = "zone of inhibition at 320 µg/mL"
result_value = "20.8 mm"

[[record]]
compound = "C=C[C@]1(C)C[C@@H](OC(=O)CSc2nc3ccc(N)cc3[nH]2)[C@]2(C)[C@H](C)CC[C@]3(CCC(=O)[C@H]32)[C@@H](C)[C@@H]1O [Compound 3]"
observed_property = "zone of inhibition at 320 µg/mL"
result_value = "33 mm"


====

# Target under test: CYP1A2 (Homo sapiens, UniProt P05177)
# Sequence (P05177 whole entry): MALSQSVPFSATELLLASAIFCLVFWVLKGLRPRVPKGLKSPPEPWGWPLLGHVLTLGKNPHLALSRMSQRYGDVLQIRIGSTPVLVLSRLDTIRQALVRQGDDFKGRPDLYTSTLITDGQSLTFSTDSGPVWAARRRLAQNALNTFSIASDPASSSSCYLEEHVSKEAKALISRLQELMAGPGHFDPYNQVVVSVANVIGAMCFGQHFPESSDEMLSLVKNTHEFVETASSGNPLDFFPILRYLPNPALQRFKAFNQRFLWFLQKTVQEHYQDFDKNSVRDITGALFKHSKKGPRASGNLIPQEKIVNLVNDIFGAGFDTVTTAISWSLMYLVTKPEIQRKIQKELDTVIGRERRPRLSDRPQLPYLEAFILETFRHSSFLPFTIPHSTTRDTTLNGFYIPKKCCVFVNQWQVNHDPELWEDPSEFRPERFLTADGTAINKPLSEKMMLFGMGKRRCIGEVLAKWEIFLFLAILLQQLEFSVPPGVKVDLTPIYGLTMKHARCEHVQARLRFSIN
pIC50: −log10 of the molar value.
Observed property: pIC50

[[record]]
molecule = "C=C[C@]1(C)C[C@@H](OC(=O)CSc2nc3ccc(N)cc3[nH]2)[C@]2(C)[C@H](C)CC[C@]3(CCC(=O)[C@H]32)[C@@H](C)[C@@H]1O [Compound 3]"
observed_property = "pIC50"
result_value = "< 4.30"


====

# Target under test: UniProt:P10635
# Sequence (P10635 whole entry): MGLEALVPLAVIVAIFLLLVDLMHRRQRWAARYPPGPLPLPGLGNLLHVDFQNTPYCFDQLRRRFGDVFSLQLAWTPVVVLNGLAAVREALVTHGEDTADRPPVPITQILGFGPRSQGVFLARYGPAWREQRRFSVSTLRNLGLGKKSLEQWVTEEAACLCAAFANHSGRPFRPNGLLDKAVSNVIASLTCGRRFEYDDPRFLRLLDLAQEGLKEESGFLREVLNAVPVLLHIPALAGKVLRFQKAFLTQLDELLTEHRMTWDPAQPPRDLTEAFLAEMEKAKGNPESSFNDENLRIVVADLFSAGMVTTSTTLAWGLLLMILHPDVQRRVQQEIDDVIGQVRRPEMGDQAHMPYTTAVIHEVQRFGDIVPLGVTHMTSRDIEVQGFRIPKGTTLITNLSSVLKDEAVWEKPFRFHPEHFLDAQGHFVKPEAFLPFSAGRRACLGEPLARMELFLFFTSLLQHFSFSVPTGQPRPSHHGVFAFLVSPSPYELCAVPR
Observed property: IC50

[[record]]
compound = "C=C[C@]1(C)C[C@@H](OC(=O)CSc2nc3ccc(N)cc3[nH]2)[C@]2(C)[C@H](C)CC[C@]3(CCC(=O)[C@H]32)[C@@H](C)[C@@H]1O [Compound 3]"
result_value = "> 100 µM"


====

# Test system: S. haemolyticus
# Experiment notes: Oxford cup assay, zone of inhibition
# Type: cell-based
# Condition set: Staphylococcus haemolyticus; 320 µg/mL
Where a name gives a salt, the structure may show the parent alone.
Observed property: zone of inhibition at 320 µg/mL (mm)

[[record]]
molecule = "C=C[C@]1(C)C[C@@H](OC(=O)CSCCN(CC)CC)[C@]2(C)[C@H](C)CC[C@]3(CCC(=O)[C@H]32)[C@@H](C)[C@@H]1O [Tiamulin, tiamulin fumarate, reference compound]"
target_under_test = "S. haemolyticus"
units_text = "mm"
result_value = 31.5

[[record]]
molecule = "C=C[C@]1(C)C[C@@H](OC(=O)CSc2nc3ccc(NC(=O)c4cccc(Cl)c4)cc3[nH]2)[C@]2(C)[C@H](C)CC[C@]3(CCC(=O)[C@H]32)[C@@H](C)[C@@H]1O"
target_under_test = "S. haemolyticus"
units_text = "mm"
result_value = 20.4

[[record]]
molecule = "C=C[C@]1(C)C[C@@H](OC(=O)CSc2nc3ccc(NC(=O)c4ccc(Cl)cc4)cc3[nH]2)[C@]2(C)[C@H](C)CC[C@]3(CCC(=O)[C@H]32)[C@@H](C)[C@@H]1O"
target_under_test = "S. haemolyticus"
units_text = "mm"
result_value = 20.9

[[record]]
molecule = "C=C[C@]1(C)C[C@@H](OC(=O)CSc2nc3ccc(NC(=O)c4ccc[nH]4)cc3[nH]2)[C@]2(C)[C@H](C)CC[C@]3(CCC(=O)[C@H]32)[C@@H](C)[C@@H]1O"
target_under_test = "S. haemolyticus"
units_text = "mm"
result_value = 29.9


====

# Tested on: S. vitulinus
# Experiment notes: Oxford cup assay, zone of inhibition
# Assay type: cell-based, Staphylococcus vitulinus
# Condition set: Mammaliicoccus vitulinus; 320 µg/mL
Listed below: zone of inhibition at 320 µg/mL values for each entry.
Observed property: zone of inhibition at 320 µg/mL (mm)

[[record]]
sample_smiles = "C=C[C@]1(C)C[C@@H](OC(=O)CSc2nc3ccc(NC(=O)c4cccc(C)c4)cc3[nH]2)[C@]2(C)[C@H](C)CC[C@]3(CCC(=O)[C@H]32)[C@@H](C)[C@@H]1O"
units_text = "mm"
result_value = 20.3

[[record]]
sample_smiles = "C=C[C@]1(C)C[C@@H](OC(=O)CSc2nc3ccc(NC(=O)c4ccccc4OC)cc3[nH]2)[C@]2(C)[C@H](C)CC[C@]3(CCC(=O)[C@H]32)[C@@H](C)[C@@H]1O"
units_text = "mm"
result_value = 18

[[record]]
sample_smiles = "C=C[C@]1(C)C[C@@H](OC(=O)CSc2nc3ccc(NC(=O)c4ccc(C)cc4)cc3[nH]2)[C@]2(C)[C@H](C)CC[C@]3(CCC(=O)[C@H]32)[C@@H](C)[C@@H]1O"
units_text = "mm"
result_value = 15.1


====

Listed below: zone of inhibition at 320 µg/mL values for each entry.
# System: S. vitulinus
# Experiment notes: Oxford cup assay, zone of inhibition
# Type: cell-based, Staphylococcus vitulinus
# Condition set: Mammaliicoccus vitulinus; 320 µg/mL
Counter-ions that a name gives are not always drawn.
Observed property: zone of inhibition at 320 µg/mL (mm)

[[record]]
molecule = "C=C[C@]1(C)C[C@@H](OC(=O)CSc2nc3ccc(NC(=O)c4ccc[nH]4)cc3[nH]2)[C@]2(C)[C@H](C)CC[C@]3(CCC(=O)[C@H]32)[C@@H](C)[C@@H]1O"
result_value = 27

[[record]]
molecule = "C=C[C@]1(C)C[C@@H](OC(=O)CSc2nc3ccc(NC(=O)c4ccccc4Cl)cc3[nH]2)[C@]2(C)[C@H](C)CC[C@]3(CCC(=O)[C@H]32)[C@@H](C)[C@@H]1O"
result_value = 19.2

[[record]]
molecule = "C=C[C@]1(C)C[C@@H](OC(=O)CSCCN(CC)CC)[C@]2(C)[C@H](C)CC[C@]3(CCC(=O)[C@H]32)[C@@H](C)[C@@H]1O [Tiamulin, tiamulin fumarate, reference compound]"
result_value = 30.9

[[record]]
molecule = "C=C[C@]1(C)C[C@@H](OC(=O)CSc2nc3ccc(N)cc3[nH]2)[C@]2(C)[C@H](C)CC[C@]3(CCC(=O)[C@H]32)[C@@H](C)[C@@H]1O"
result_value = 29.6

[[record]]
molecule = "C=C[C@]1(C)C[C@@H](OC(=O)CSc2nc3ccc(NC(=O)C4CCCCC4)cc3[nH]2)[C@]2(C)[C@H](C)CC[C@]3(CCC(=O)[C@H]32)[C@@H](C)[C@@H]1O"
result_value = 29.1

